target: Mushroom tyrosinase (EC 1.14.18.1); experiment: Tyrosinase assay (dopachrome formation at 475 nm); conditions: L-DOPA or L-tyrosine as substrate, pH 6.8, 30 °C, mean ± standard deviation from triplicate experiments, read-out: Tyrosinase Inhibitory Activity IC50
REPORTED METRIC: IC50 (µM)

The cases that follow already have their IC50 on record.
O=c1c(-c2ccc(O)cc2)coc2cc(O[C@@H]3O[C@H](CO)[C@H](O)[C@H](O)[C@H]3O)ccc12 [Compound 5, daidzein 7-β-galactoside] = 102
O=c1c(-c2ccc(O)cc2)coc2cc(OC3OC(COC4OC(CO)C(O)C(O)C4O)C(O)C(O)C3O)ccc12 (stereo not drawn) [Compound 3, daidzein 7-β-gentiobioside] = 280
Cc1c(C)c2c(c(C)c1O)CC[C@@](C)(CCC[C@H](C)CCC[C@H](C)CCCC(C)C)O2 [Compound 6, α-tocopherol] = 510
COc1ccc(C2CC(=O)c3c(O)cc(O)cc3O2)cc1OC1OC(CO)C(O)C(O)C1O (stereo not drawn) [Compound 9, hesperetin 3′-β-glucoside] = 355

I. O=c1c(-c2ccc(O)cc2)coc2cc(O)ccc12 [Compound 1, daidzein]
II. COc1ccc(C2CC(=O)c3c(O)cc(OC4OC(CO)C(O)C(O)C4O)cc3O2)cc1OC1OC(CO)C(O)C(O)C1O (stereo not drawn) [Compound 11, hesperetin 3′,7-β-diglucoside]
// returns I or II , whichever has the lower IC50 Give the chosen item's label as your response.
II
(II: 176 µM, I: 392 µM)
